Please provide measured inhibition at 300 g/ha for the entries that follow.
System: POAAN (annual bluegrass)
Experiment: Pre-plant incorporated (PPI) herbicidal activity, cool season
Type: in vivo, Poa annua
Details: Poa annua; weed, PPI application, 300 g/ha; read-out: Percent inhibition POAAN
Field: value (include unit after the number)

Exercise: Identify inhibition at 300 g/ha associated with the compound CCN(CC)C(=O)n1cnc(S(=O)(=O)C(F)(F)Br)n1
Key: 100%

Exercise: Return value of inhibition at 300 g/ha for input CCSC(F)(F)S(=O)(=O)c1ncn(C(=O)N(CC)CC)n1 , no commentary.
Key: 100%

Exercise: For C=CCC(F)(F)S(=O)(=O)c1ncn(C(=O)N(CC)CC)n1 , write its inhibition at 300 g/ha.
Key: 95%

Exercise: Determine its reported inhibition at 300 g/ha: C=C(C)CC(F)(F)S(=O)(=O)c1ncn(C(=O)N(CC)CC)n1
Key: 80%

Exercise: State its inhibition at 300 g/ha for this compound: C=C(Br)CC(F)(F)S(=O)(=O)c1ncn(C(=O)N(CC)CC)n1
Key: 100%

Cited source for all entries: patent US6461997B1
